UV absorption maximum, second (UV-A) band values by entry
Measurement Protocol: UV absorption spectrum in CH2Cl2
Type: physicochemical
Recorded Endpoint: UV absorption maximum, second (UV-A) band (nm)

{"columns": ["Molecule", "Readout Number"],
 "data": [
  ["CCCCC=CC(C)c1cc(C)cc(-n2nc3ccccc3n2)c1O (centres unmarked)", 344],
  ["CCCCCC(CC)c1cc(C)cc(-n2nc3ccccc3n2)c1O (centres unmarked)", 346],
  ["CCCC(CC)c1cc(C(C)(C)CC(C)(C)C)cc(-n2nc3ccccc3n2)c1O (centres unmarked)", 346],
  ["C=CC(CCC)c1cc(C(C)(C)CC(C)(C)C)cc(-n2nc3ccccc3n2)c1O (centres unmarked)", 343],
  ["C=CC(CCCCC)c1cc(C)cc(-n2nc3ccccc3n2)c1O (centres unmarked)", 344]
]}

----------
Measurement Protocol: UV absorption spectrum in CH2Cl2
Format: physicochemical
Recorded Endpoint: UV absorption maximum, first (UV-B) band (nm)

{"columns": ["Compound", "Unit Label", "Readout Number"],
 "data": [
  ["C=CC(CCC)c1cc(C(C)(C)CC(C)(C)C)cc(-n2nc3ccccc3n2)c1O (centres unmarked)", "nm", 305],
  ["CCCCC=CC(C)c1cc(C)cc(-n2nc3ccccc3n2)c1O (centres unmarked)", "nm", 306],
  ["CCCC(CC)c1cc(C(C)(C)CC(C)(C)C)cc(-n2nc3ccccc3n2)c1O (centres unmarked)", "nm", 306],
  ["C=CC(CCCCC)c1cc(C)cc(-n2nc3ccccc3n2)c1O (centres unmarked)", "nm", 306],
  ["CCCCCC(CC)c1cc(C)cc(-n2nc3ccccc3n2)c1O (centres unmarked)", "nm", 306]
]}
